Tested on: LS513 colon cancer cell with KRAS G12D mutation
protocol: Proliferation inhibition on RAS cell lines measured by CTG, LS513
Type: cell-based
setup-conditions: Homo sapiens, LS-513, 144 h, Table 1, numeric value; LS513 cells, incubated for 6 days; read-out: IC50 (LS513^f)
measured-attribute: IC50 (nM)

(a) C#Cc1c(F)ccc2cc(O)cc(-c3ncc4c(N5CCCCCN5)nc(OC[C@@]56CCCN5C[C@H](F)C6)nc4c3F)c12
(b) C#Cc1c(F)ccc2cc(O)cc(-c3ncc4c(N5CCCCN5)nc(OC[C@@]56CCCN5C[C@H](F)C6)nc4c3F)c12
Exam item: Two entries are listed, a and b . Which one carries the higher IC50? API: response body contains the label of the selected item.
Marked response: b

----------
protocol: Pharmacokinetic study in mice after oral administration
Assay type: in vivo
setup-conditions: mouse, 30 mg/kg, male C57BL/6J mice, plasma, 0.1% Tween 80 + 0.5% MC in water
measured-attribute: half-life (h)
Please reply with the bare figure in h and do not write the unit itself.

Exam item: What does the record list as half-life for "C#Cc1c(F)ccc2cc(O)cc(-c3ncc4c(N5CCCCCN5)nc(OC[C@@]56CCCN5C[C@H](F)C6)nc4c3F)c12" ?
Marked response: 1.89

----------
System: GP2D cells
protocol: Proliferation inhibition on RAS cell lines measured by CTG, GP2D
Type: cell-based
setup-conditions: 144 h, Table 2, incubated for 6 days, CellTiter Glo, read-out: IC50 (GP2D^j)
pIC50: −log10 of the molar value.
Listed here are molecules together with their documented pIC50.

The following molecules have reported results that may help.
molecule	measured-attribute	observed
C#Cc1c(F)ccc2cc(O)cc(-c3c(C(F)(F)F)cc4c(N5CCCCCN5)nc(OC[C@@]56CCCN5C[C@H](F)C6)nc4c3F)c12 [Compound 54]	pIC50	6.00 to 7.00
[2H]C([2H])(Oc1nc(N2CCCCCN2)c2cnc(-c3cc(O)cc4ccc(F)c(C#C)c34)c(F)c2n1)[C@@]12CCCN1C[C@H](F)C2 [Compound 82]	pIC50	> 7.00
Oc1cc(-c2ncc3c(N4CCCCCN4)nc(OC[C@@]45CCCN4C[C@H](F)C5)nc3c2F)c2c(F)c(F)ccc2c1 [Compound 66]	pIC50	> 7.00
C#Cc1c(F)ccc2cc(O)cc(-c3ncc4c(N5CCCCCN5)nc(OC[C@@H]5CCCN5C)nc4c3F)c12 [Compound 72]	pIC50	> 7.00
C#Cc1c(F)ccc2cc(O)cc(-c3ncc4c(N5CCCCCN5C(=O)C(F)(F)F)nc(OC[C@@]56CCCN5C[C@H](F)C6)nc4c3F)c12 [Compound 68]	pIC50	> 7.00
C#Cc1c(F)ccc2c(F)c(O)cc(-c3ncc4c(N5CCCCCN5)nc(OC[C@@]56CCCN5C[C@H](F)C6)nc4c3F)c12 [Compound 64]	pIC50	> 7.00

Exam item: # get_value(readout='pIC50', item= C#Cc1c(F)ccc2cc(OC(=O)NCCCCCCCC)cc(-c3ncc4c(N5CCCCCN5)nc(OC[C@@]56CCCN5C[C@H](F)C6)nc4c3F)c12 [Compound 69] )
Marked response: > 7.00

Exam item: Please report the recorded pIC50 for C#Cc1c(F)ccc2cc(O)cc(-c3ncc4c(N5CCCCCN5)nc(OCC56CCCN5C(COc5cc(C(F)(F)F)ncn5)CC6)nc4c3F)c12 (stereo not drawn) [Compound 60] .
Marked response: > 7.00

Exam item: If you can, please state the reported pIC50 value of C#Cc1c(F)ccc2cc(O)cc(-c3ncc4c(N5CCCCCN5)nc(OC[C@]56CCCN5[C@H](c5cc(F)c(F)c(F)c5)CC6)nc4c3F)c12 [Compound 85] .
Marked response: 6.00 to 7.00

Exam item: Give the measured pIC50 of C#Cc1c(F)ccc2cc(O)cc(-c3ncc4c(N5CCCCCN5)nc(OCC56CCCN5C(COc5cc(C(F)(F)F)cnn5)CC6)nc4c3F)c12 (stereo not drawn) [Compound 58] .
Marked response: > 7.00

Exam item: Record request: pIC50 value, item C#Cc1c(F)ccc2cc(O)cc(-c3ncc4c(N5CC=CCN5)nc(OC[C@@]56CCCN5C[C@H](F)C6)nc4c3F)c12 [Compound 76]
Marked response: 6.00 to 7.00

Exam item: Endpoint output: pIC50 of Nc1cc(Cl)c(C(F)(F)F)c(-c2ncc3c(N4CCCCCN4)nc(OC[C@@]45CCCN4C[C@H](F)C5)nc3c2F)c1 [Compound 81] . Value?
Marked response: 6.00 to 7.00
